Assign pIC50 to each entry below.
# STUDY TARGET: KV10.1 (Homo sapiens, UniProt O95259)
# Construct: expressed in transfected cells
# Sequence (O95259 1-962 isoform O95259-2): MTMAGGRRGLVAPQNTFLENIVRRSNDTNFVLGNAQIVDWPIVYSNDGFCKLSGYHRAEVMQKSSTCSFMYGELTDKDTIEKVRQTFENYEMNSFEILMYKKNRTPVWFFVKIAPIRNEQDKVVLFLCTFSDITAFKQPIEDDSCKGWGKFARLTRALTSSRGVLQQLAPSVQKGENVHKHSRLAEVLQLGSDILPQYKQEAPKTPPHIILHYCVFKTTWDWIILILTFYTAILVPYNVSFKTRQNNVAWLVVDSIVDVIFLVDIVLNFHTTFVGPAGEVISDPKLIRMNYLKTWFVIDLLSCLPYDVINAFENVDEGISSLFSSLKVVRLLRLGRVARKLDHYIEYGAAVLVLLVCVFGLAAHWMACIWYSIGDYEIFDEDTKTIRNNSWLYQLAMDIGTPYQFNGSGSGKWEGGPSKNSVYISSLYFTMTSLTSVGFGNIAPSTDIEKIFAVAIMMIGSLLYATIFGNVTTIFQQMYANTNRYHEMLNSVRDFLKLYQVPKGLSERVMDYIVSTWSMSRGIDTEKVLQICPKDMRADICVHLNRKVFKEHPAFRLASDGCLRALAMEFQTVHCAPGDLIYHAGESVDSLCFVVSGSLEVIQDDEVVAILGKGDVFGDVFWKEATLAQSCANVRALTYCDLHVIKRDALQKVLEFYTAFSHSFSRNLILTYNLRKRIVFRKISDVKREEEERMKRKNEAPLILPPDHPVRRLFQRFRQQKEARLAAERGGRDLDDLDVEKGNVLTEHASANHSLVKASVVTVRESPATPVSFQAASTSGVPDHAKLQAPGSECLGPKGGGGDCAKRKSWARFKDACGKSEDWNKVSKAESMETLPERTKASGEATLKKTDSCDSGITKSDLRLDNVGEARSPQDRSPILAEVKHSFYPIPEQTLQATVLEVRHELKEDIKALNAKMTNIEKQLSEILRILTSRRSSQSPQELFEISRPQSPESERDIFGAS
# ASSAY METHOD TEXT: Whole-cell patch clamp on HEK-293 cells stably expressing KV10.1
# Assay type: cell-based
# EXPERIMENTAL SETUP: HEK-293, 500 ms depolarisation to +40 mV; read-out: IC50 Kv10.1
The value called pIC50 is obtained by taking minus log10 of the concentration in mol/L.

Q: Short answer please: pIC50, KV10.1 (Homo sapiens, UniProt O95259), entry CN(C)CCCOc1ccc(Nc2ccc(C(F)(F)F)cc2[N+](=O)[O-])cc1
Result: 6.13

Q: Same question, O=[N+]([O-])c1cc(C(F)(F)F)ccc1Nc1ccc(OCC(O)CN2CCOCC2)cc1 (stereo not drawn) this time
Result: 6.00

Q: What do you have for CN(C)CC(O)COc1ccc(Nc2ccc(C(F)(F)F)cc2[N+](=O)[O-])cc1 (stereo not drawn) ?
Result: 5.43

----------
# STUDY TARGET: KV10.1 (Homo sapiens, UniProt O95259)
# Construct: expressed in transfected cells
# ASSAY METHOD TEXT: Whole-cell patch clamp on HEK-293 cells stably expressing KV10.1
# Format: cell-based
# EXPERIMENTAL SETUP: same IC50 in presence and absence of 1 µM mibefradil; end of 500 ms pulse to +40 mV; read-out: IC50 Kv10.1, competition with mibefradil
# Experimental: Whole-cell patch clamp experiments were performed on stably transfected HEK-293 cells. The cells were grown on fibronectin-coated glass coverslips in DMEM supplemented with 10% FCS and 300 µg/mL Zeocin. […] KV10.1 currents were elicited by 500 ms depolarisations to +40 mV under continuous perfusion with the compound-containing or control solution. hERG current amplitudes were measured as the peak tail current during a 4 s repolarization to −40 mV after a depolarising pulse to +20 mV lasting for 2 s. […]
OBSERVATION TYPE: pIC50
Field pIC50 (float): negative decimal logarithm of the concentration in molar.

Q: Consider the compound CN(C)CC(O)COc1ccc(Nc2ccc(C(F)(F)F)cc2[N+](=O)[O-])cc1 (stereo not shown) and give its measured pIC50.
Result: 5.83

----------
# STUDY TARGET: KV10.1 (Homo sapiens)
# Construct: expressed in transfected cells
# ASSAY METHOD TEXT: Whole-cell patch clamp on HEK-293 cells stably expressing KV10.1
# Assay type: cell-based
# EXPERIMENTAL SETUP: HEK293; compound concentration 50 μM; stimuli to +40 mV; mean ± standard error; read-out: Effect on Kv10.1 (% Inhibition)
Please provide measured inhibition at 50 µM for the entries that follow.
Reply with the number and its unit after it.

Q: inhibition at 50 µM lookup needed for Cc1cccnc1C(=O)NCc1cnc(CCC2CCN(C)CC2)cn1 , thanks.
Result: -1.13%

Q: Then CN(C)CC(O)COc1ccc(Nc2ccc(C(F)(F)F)cc2[N+](=O)[O-])cc1 (centres unmarked) ?
Result: 80.3%

Q: Another molecule: CN1CCOC(c2nccc(CNC(=O)Cc3cccs3)n2)C1 (centres unmarked)
Result: -1.14%

Q: Try CN1CCN(c2cc(CNC(=O)c3cc(=O)[nH]c4ccccc34)ccn2)CC1 next.
Result: -7.5%

Q: Now consider CN1CCN(S(=O)(=O)c2ccc(CNC(=O)c3ccccc3)s2)CC1 and answer again.
Result: 5.03%

Provenance of the data: paper PMC8002023
